Cited source: patent US20040106626A1

- assayTarget: Human thrombin (Homo sapiens, UniProt P00734)
- Construct: converts prothrombin (II) to thrombin (IIa); purchased Calbiochem, La Jolla, Calif
- experiment: Thrombin assay (chromogenic substrate)
- Assay type: biochemical
- conditionNotes: reported only as less than or greater than 30 uM; read-out: Thrombin (II) IC50
measure: IC50

Returns the measured IC50 for the input molecule. Input: CC(C)Nc1ncc(-c2cc(N)cc(NCc3ccccc3)c2)n(CC(=O)NCc2ccc(C(=N)N)cc2)c1=O > 30 µM

Find the recorded IC50 belonging to CCCc1ccc(C(=O)Nc2cc(N)cc(-c3cnc(NC(C)C)c(=O)n3CC(=O)NCc3ccc(C(=N)N)cc3)c2)cc1 and report it. < 30 µM

What does the record list as IC50 for CC(C)Nc1ncc(-c2cc(N)cc(C(F)(F)F)c2)n(CC(=O)NCc2c(F)c(O)c(C(=N)N)c(F)c2F)c1=O [Example 65] ? > 30 µM

Entry under review: CC(C)Nc1ncc(-c2cc(N)cc(C(=O)NCC(=O)O)c2)n(CC(=O)NCc2ccc(C(=N)N)cc2)c1=O . Reported IC50? > 30 µM

---

- assayTarget: Human thrombin (Homo sapiens, UniProt P00734)
- Construct: converts prothrombin (II) to thrombin (IIa); purchased Calbiochem, La Jolla, Calif
- experiment: Thrombin assay (chromogenic substrate)
- Type: biochemical
- conditionNotes: reported only as less than or greater than 30 uM; read-out: Thrombin (II) IC50
pIC50: −log10 of the molar value.
Can you tell me pIC50 for the items I'm about to list?

Record lookup: for Human thrombin (Homo sapiens, UniProt P00734), what pIC50 belongs to CC(C)Nc1ncc(-c2cc(N)cc(NC(=O)C3CC3)c2)n(CC(=O)NCc2ccc(C(=N)N)cc2)c1=O.O=C(O)C(F)(F)F.O=C(O)C(F)(F)F [Example 144] ? < 4.52

Provide value of pIC50 for this record tested with Human thrombin (Homo sapiens, UniProt P00734): COc1ccc(CNC(=O)c2cc(N)cc(-c3cnc(NC(C)C)c(=O)n3CC(=O)NCc3ccc(C(=N)N)cc3)c2)cc1.O=C(O)C(F)(F)F.O=C(O)C(F)(F)F [Example 174] < 4.52

# returns recorded pIC50 (system: Human thrombin (Homo sapiens, UniProt P00734)) for CC(C)CCOc1cc(N)cc(-c2cnc(NC(C)C)c(=O)n2CC(=O)NCc2ccc(C(=N)N)cc2)c1.O=C(O)C(F)(F)F.O=C(O)C(F)(F)F [Example 214] < 4.52

---

- assayTarget: recombinant soluble tissue factor and recombinant human factor VIIa (TF-VIIa) (Homo sapiens, UniProt P08709)
- Construct: conversion of coagulation factor VII to VIIa by factor Xa
- Sequence (P08709 213-466 limits assumed): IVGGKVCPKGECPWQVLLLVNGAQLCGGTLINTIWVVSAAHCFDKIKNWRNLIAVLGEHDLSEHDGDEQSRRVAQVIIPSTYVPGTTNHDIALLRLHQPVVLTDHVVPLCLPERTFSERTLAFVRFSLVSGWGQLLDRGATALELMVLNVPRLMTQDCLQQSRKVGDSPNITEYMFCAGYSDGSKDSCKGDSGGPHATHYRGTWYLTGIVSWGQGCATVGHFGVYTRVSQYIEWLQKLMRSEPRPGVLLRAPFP
- Sequence (P08709 61-212 limits assumed): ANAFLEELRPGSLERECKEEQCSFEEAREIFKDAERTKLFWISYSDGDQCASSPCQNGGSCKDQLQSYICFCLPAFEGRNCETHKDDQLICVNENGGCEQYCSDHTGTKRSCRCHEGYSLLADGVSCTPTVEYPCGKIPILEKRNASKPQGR
- Sequence (P13726 33-251 partner limits assumed): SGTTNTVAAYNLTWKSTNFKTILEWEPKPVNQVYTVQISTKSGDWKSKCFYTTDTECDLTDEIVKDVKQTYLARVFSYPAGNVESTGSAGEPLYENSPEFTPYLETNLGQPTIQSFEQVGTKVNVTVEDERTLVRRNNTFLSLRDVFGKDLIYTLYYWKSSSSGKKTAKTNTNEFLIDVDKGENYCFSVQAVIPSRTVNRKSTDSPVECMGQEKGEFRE
- experiment: TF-VIIa assay (chromogenic substrate hydrolysis)
- conditionNotes: reported only as less than or greater than 0.1 uM
pIC50: −log10 of the molar value.
Exercise: state measured pIC50 for each of the molecules provided.

Record request: pIC50 value, item CCNc1ncc(-c2cc(N)cc(C(=O)N[C@@H](C)CC)c2)n(CC(=O)NCc2ccc(C(=N)N)cc2)c1=O.O=C(O)C(F)(F)F.O=C(O)C(F)(F)F > 7.00

Entry CC(C)Nc1ncc(-c2cc(N)cc(NS(=O)(=O)c3ccc(F)cc3)c2)n(CC(=O)NCc2ccc(C(=N)N)cc2)c1=O has what pIC50? > 7.00

Suppose we examine the molecule CCC(C)CS(=O)(=O)c1cc(N)cc(-c2cnc(NC(C)C)c(=O)n2CC(=O)NCc2ccc(C(=N)N)cc2)c1.O=C(O)C(F)(F)F.O=C(O)C(F)(F)F (stereo not drawn) ; what pIC50 value has been reported? > 7.00
